# Measured target: αvβ5
# Procedure details: ELISA
Starred links: 1 amine or outer side, 2 acyl side, 3 side chain; linkers in the order of their positions; H or OH if unused. Positions of bridges follow the written chain, without caps; N, C: chain ends. Non-standard residues stand in square brackets, D forms with d. No end group written: not given here. Tyr(Me) = O-methyl-tyrosine (Y-OMe, O-Me-Tyr), COc1ccc(C[C@H](N[*:1])C(=O)[*:2])cc1; Cys(β,β-pentamethylene) = O=C([C@@H](N[*:1])C1(S[*:3])CCCCC1)[*:2]; Phe(4-I) = N[C@@H](Cc1ccc(I)cc1)C(=O)O; hPhe = N[C@@H](CCc1ccccc1)C(=O)O

# Binder, IC50
measured = [
    ("R[Cys(β,β-pentamethylene)]GHRGD[hPhe]RCR (disulfide 2-10; also: Pmc2 from Boc-D/L-Pmc, configuration not given here) [R(Pmc)GHRGD(Hpa)RCR]", "4250 nM"),
    ("R[Cys(β,β-pentamethylene)]GHRGD[Tyr(Me)]RCR (disulfide 2-10; also: Pmc2 made from D,L-Pmc, configuration not given here) [R(Pmc)GHRGD(Y-OMe)RCR]", "1050 nM"),
    ("R[Cys(β,β-pentamethylene)]GHRGDLRCR (disulfide 2-10 (inferred); also: D,L-Pmc mixture at 2) [R(Pmc)GHRGDLRCR]", "1580 nM"),
    ("R[Cys(β,β-pentamethylene)]GHRGD[Phe(4-I)]RCR (disulfide 2-10; also: Pmc2 from Boc-D/L-Pmc) [R(Pmc)GHRGD(p-I-F)RCR]", "4030 nM"),
]
